- measurement-target: Delta-type opioid receptor (Homo sapiens) (UniProt P41143)
- Sequence (P41143 whole entry): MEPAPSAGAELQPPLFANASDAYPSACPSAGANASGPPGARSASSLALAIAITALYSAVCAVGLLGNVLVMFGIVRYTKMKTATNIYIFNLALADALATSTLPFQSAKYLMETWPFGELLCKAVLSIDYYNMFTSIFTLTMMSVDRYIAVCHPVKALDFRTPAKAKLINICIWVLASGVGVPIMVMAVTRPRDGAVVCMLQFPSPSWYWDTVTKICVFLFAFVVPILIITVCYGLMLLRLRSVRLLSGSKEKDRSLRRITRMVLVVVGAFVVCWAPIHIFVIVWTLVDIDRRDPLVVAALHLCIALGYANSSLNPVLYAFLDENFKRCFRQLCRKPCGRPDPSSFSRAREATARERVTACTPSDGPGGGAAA
- assay-setup: Compound concentration 10 µM
- Description: PDSP Primary Binding target: OPRD1 - Compounds are tested at 10 uM concentration, plate are incubated at room temperature in the dark for 90 minutes. Reaction are stopped by vacuum filtration onto 0.3% polyethyleneimine soaked filter mats using Filtermate harvester. Scintilation cocktail is then melted onto microwave-dried filters on a hot plate and the radio activity is counted in Microbia counter.
This listing pairs molecules with measured inhibition.
Supply the numeric figure in %, leaving out any unit text.

Study these solved cases before continuing.
>>> reported_measurement("O=c1ccn([C@@H]2O[C@H](COP(=O)(O)OP(=O)(O)O)[C@@H](O)[C@H]2O)c(=O)[nH]1")
14.1
>>> reported_measurement("COc1ccc(CNC(=O)c2cc(-c3cncc(Cl)c3)cnc2-c2ccccn2)nc1OC")
-4.67
>>> reported_measurement("OCc1cc(C(O)CNCCCCCCOCCCCc2ccccc2)ccc1O (configuration not stated)")
5.6
>>> reported_measurement("C[C@@H](NCCc1ccc(O)cc1)[C@@H](O)c1ccc(O)cc1 (relative stereo)")
17.5

Incoming: # input molecule: "N=C(N)SCCc1c[nH]cn1" ; wanted: its inhibition
Outgoing: -6.86

Incoming: # input molecule: "CN1CCN(c2ccc(Nc3c4ccccc4nc4ccccc34)cc2)CC1" ; wanted: its inhibition
Outgoing: 5.07

Incoming: # input molecule: "O=C(O)CC/C=C\C[C@@H]1CO[C@H](c2ccccc2Cl)O[C@@H]1c1ccccc1O" ; wanted: its inhibition
Outgoing: 46
